Consider the following compounds and their measured half-life readings.
experiment: Stability in PBS at pH 7.4 assessed as half life by HPLC analysis; format: physicochemical

{"compound": "CC(C)OC(=O)OCOC(=O)[C@H]1[C@@H]2C[C@@H](O[C@@H]3O[C@H](C)[C@@H](O)[C@H](N)[C@@H]3O)/C=C/C=C/C=C/C=C/C=C/C=C/C=C/[C@H](C)[C@@H](O)[C@@H](C)[C@H](C)OC(=O)C[C@H](O)C[C@H](O)CC[C@@H](O)[C@H](O)C[C@H](O)C[C@](O)(C[C@@H]1O)O2", "unit-abbreviation": "h", "half-life": 7.6}
{"compound": "CCOC(=O)[C@H](C)OP(=O)(OCC)Oc1ccc(COC(=O)OCOC(=O)[C@H]2[C@@H]3C[C@@H](O[C@@H]4O[C@H](C)[C@@H](O)[C@H](N)[C@@H]4O)/C=C/C=C/C=C/C=C/C=C/C=C/C=C/[C@H](C)[C@@H](O)[C@@H](C)[C@H](C)OC(=O)C[C@H](O)C[C@H](O)CC[C@@H](O)[C@H](O)C[C@H](O)C[C@](O)(C[C@@H]2O)O3)cc1 (some centres undefined)", "unit-abbreviation": "h", "half-life": 2.8}
{"compound": "CCOP(=O)(OCCOC(C)=O)Oc1ccc(COC(=O)N[C@@H]2[C@H](O)[C@H](O[C@H]3/C=C/C=C/C=C/C=C/C=C/C=C/C=C/[C@H](C)[C@@H](O)[C@@H](C)[C@H](C)OC(=O)C[C@H](O)C[C@H](O)CC[C@@H](O)[C@H](O)C[C@H](O)C[C@]4(O)C[C@H](O)[C@@H](C(=O)O)[C@H](C3)O4)O[C@H](C)[C@H]2O)cc1 (some centres undefined)", "unit-abbreviation": "h", "half-life": 35}
{"compound": "CCOC(=O)[C@H](C)OP(=O)(OCC)Oc1ccc(COC(=O)N[C@@H]2[C@H](O)[C@H](O[C@H]3/C=C/C=C/C=C/C=C/C=C/C=C/C=C/[C@H](C)[C@@H](O)[C@@H](C)[C@H](C)OC(=O)C[C@H](O)C[C@H](O)CC[C@@H](O)[C@H](O)C[C@H](O)C[C@]4(O)C[C@H](O)[C@@H](C(=O)O)[C@H](C3)O4)O[C@H](C)[C@H]2O)cc1 (some centres undefined)", "unit-abbreviation": "h", "half-life": 18}

----------
test system: HEK293; experiment: Cytotoxicity against human HEK293 cells at 12.5 uM incubated for 24 hrs by Hoechst 33258 staining based flow cytometry; assay type: toxicity, cell-based; conditions: hek293, 24 h

{"compound": "CCOP(=O)(OCCOC(C)=O)Oc1ccc(COC(=O)N[C@@H]2[C@H](O)[C@H](O[C@H]3/C=C/C=C/C=C/C=C/C=C/C=C/C=C/[C@H](C)[C@@H](O)[C@@H](C)[C@H](C)OC(=O)C[C@H](O)C[C@H](O)CC[C@@H](O)[C@H](O)C[C@H](O)C[C@]4(O)C[C@H](O)[C@@H](C(=O)O)[C@H](C3)O4)O[C@H](C)[C@H]2O)cc1 (some centres undefined)", "Activity": "Toxic"}
{"compound": "CCOC(=O)[C@H](C)OP(=O)(OCC)Oc1ccc(COC(=O)OCOC(=O)[C@H]2[C@@H]3C[C@@H](O[C@@H]4O[C@H](C)[C@@H](O)[C@H](N)[C@@H]4O)/C=C/C=C/C=C/C=C/C=C/C=C/C=C/[C@H](C)[C@@H](O)[C@@H](C)[C@H](C)OC(=O)C[C@H](O)C[C@H](O)CC[C@@H](O)[C@H](O)C[C@H](O)C[C@](O)(C[C@@H]2O)O3)cc1 (some centres undefined)", "Activity": "Toxic"}
{"compound": "CCOC(=O)[C@H](C)OP(=O)(OCC)Oc1ccc(COC(=O)N[C@@H]2[C@H](O)[C@H](O[C@H]3/C=C/C=C/C=C/C=C/C=C/C=C/C=C/[C@H](C)[C@@H](O)[C@@H](C)[C@H](C)OC(=O)C[C@H](O)C[C@H](O)CC[C@@H](O)[C@H](O)C[C@H](O)C[C@]4(O)C[C@H](O)[C@@H](C(=O)O)[C@H](C3)O4)O[C@H](C)[C@H]2O)cc1 (some centres undefined)", "Activity": "Toxic"}
{"compound": "CC(C)OC(=O)OCOC(=O)[C@H]1[C@@H]2C[C@@H](O[C@@H]3O[C@H](C)[C@@H](O)[C@H](N)[C@@H]3O)/C=C/C=C/C=C/C=C/C=C/C=C/C=C/[C@H](C)[C@@H](O)[C@@H](C)[C@H](C)OC(=O)C[C@H](O)C[C@H](O)CC[C@@H](O)[C@H](O)C[C@H](O)C[C@](O)(C[C@@H]1O)O2", "Activity": "Toxic"}

----------
experiment: Stability in human plasma in PBS at pH 7.4 assessed as half life by HPLC analysis; type: ADME, cell-free
Consider the following molecules and their measured half-life readings.
property-measured: half-life

{"molecule": "CCOP(=O)(OCCOC(C)=O)Oc1ccc(COC(=O)N[C@@H]2[C@H](O)[C@H](O[C@H]3/C=C/C=C/C=C/C=C/C=C/C=C/C=C/[C@H](C)[C@@H](O)[C@@H](C)[C@H](C)OC(=O)C[C@H](O)C[C@H](O)CC[C@@H](O)[C@H](O)C[C@H](O)C[C@]4(O)C[C@H](O)[C@@H](C(=O)O)[C@H](C3)O4)O[C@H](C)[C@H]2O)cc1 (stereo partly drawn)", "result": "1.3 h"}
{"molecule": "CCOC(=O)[C@H](C)OP(=O)(OCC)Oc1ccc(COC(=O)N[C@@H]2[C@H](O)[C@H](O[C@H]3/C=C/C=C/C=C/C=C/C=C/C=C/C=C/[C@H](C)[C@@H](O)[C@@H](C)[C@H](C)OC(=O)C[C@H](O)C[C@H](O)CC[C@@H](O)[C@H](O)C[C@H](O)C[C@]4(O)C[C@H](O)[C@@H](C(=O)O)[C@H](C3)O4)O[C@H](C)[C@H]2O)cc1 (stereo partly drawn)", "result": "4.5 h"}
{"molecule": "CC(C)OC(=O)OCOC(=O)[C@H]1[C@@H]2C[C@@H](O[C@@H]3O[C@H](C)[C@@H](O)[C@H](N)[C@@H]3O)/C=C/C=C/C=C/C=C/C=C/C=C/C=C/[C@H](C)[C@@H](O)[C@@H](C)[C@H](C)OC(=O)C[C@H](O)C[C@H](O)CC[C@@H](O)[C@H](O)C[C@H](O)C[C@](O)(C[C@@H]1O)O2", "result": "3.3 h"}
